This collection of values is drawn from the supplement of paper PMC6555819.

Tested on: RARb homodimer (NR concentration 270 nM)
run.description: PBM binding z-score (relative to random genomic background probes); higher = stronger binding; sequences stand for … in GC…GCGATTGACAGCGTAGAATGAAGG
The following ranges of PBM binding z-score define the classes used here: Low (below 0.8), Mid (0.8 to below 2), High (2 or more)

Past entries and their recorded results:
• CCTGCTAAGTCAATGGTCAGCTAAAGCAGCTCGC = Low
• CCTAGCAGGCCAATGTGGGTCACTCAAGGCTTGA = High
• CTCGAAAGGTCGGTTGGGGTGAGTATACGGATAA = High

Hey, which category is "AATACAGGGTCATCATAGGCCAGAGTACGCACAG" in, do you know?
High

Hey, which category is "GCTATTAGTTGAAAGGGCTACCGAATGATTCTCG" in, do you know?
Low

Hey, which category is "TCAGACAGGTGAAGCTAACTCAGGTACGCAGTCG" in, do you know?
Low

Hey, which category is "TCTTGTAGATCAAAAGAGGTTAAGAAAGTGCGCT" in, do you know?
Mid

Hey, which category is "ATCTCTAGGTAACCAAGTTCAATGAATGCCGAAC" in, do you know?
Mid

Hey, which category is "GTACCAAGGTGCATAGGTCGTTGATGAGTAGGCG" in, do you know?
Low

Hey, which category is "CCTTACTGGTCACTGACAGGTTATAGCATTTGGA" in, do you know?
Mid

---

System: PPARg:RXRa 30nM:10nM, anti-RXR (NR concentration 30 nM, RXRa partner concentration 10 nM)
run.description: PBM binding z-score (relative to random genomic background probes); higher = stronger binding; sequences stand for … in GC…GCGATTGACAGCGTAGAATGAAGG
So basically: PBM binding z-score at 0.5 or higher? That is satisfied. Lower than 0.5? That is not satisfied.

Past entries and their recorded results:
• ACTAGTAGTTGACTTAGGGCAACCGATACGACGC = not satisfied
• GCTAGTTGGTCAGTAAAAGGTCACACGCCGGTCG = satisfied
• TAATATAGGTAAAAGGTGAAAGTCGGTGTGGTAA = satisfied
• GGAACGAAGGCATTCGAGTTGATAGCATGGCGAT = not satisfied
• TCTTGTAAATCAGCAGGTTAAGAAAGCTGGCCAA = satisfied

Record "CCAGACAGGTGAAAGGAAACTCAGTCTGGTACGC" ; criterion: PBM binding z-score no lower than 0.5. Met?
not satisfied

Record "GCGACTGGGGCATCAGCAGGTTACTATAACTTAA" ; criterion: PBM binding z-score no lower than 0.5. Met?
not satisfied

Record "ATATTTAGGTTAGCTGGGGTCATTCAGACTAGGC" ; criterion: PBM binding z-score no lower than 0.5. Met?
satisfied

Record "TCTTGTAGATCAATAGAGGTTAAAAAAGTGCGCT" ; criterion: PBM binding z-score no lower than 0.5. Met?
satisfied

Record "TAGCCTAGGTCATGCGAGCCAGTATAGTGTCGGC" ; criterion: PBM binding z-score no lower than 0.5. Met?
not satisfied

Record "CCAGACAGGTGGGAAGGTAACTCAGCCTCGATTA" ; criterion: PBM binding z-score no lower than 0.5. Met?
not satisfied
